These measurements were taken from ChEMBL document CHEMBL1201862.

# target: Corticotropin-releasing factor receptor 2/Corticotropin-releasing factor-binding protein (Homo sapiens, UniProt P24387+Q13324)
# Sequence (Q13324 whole entry): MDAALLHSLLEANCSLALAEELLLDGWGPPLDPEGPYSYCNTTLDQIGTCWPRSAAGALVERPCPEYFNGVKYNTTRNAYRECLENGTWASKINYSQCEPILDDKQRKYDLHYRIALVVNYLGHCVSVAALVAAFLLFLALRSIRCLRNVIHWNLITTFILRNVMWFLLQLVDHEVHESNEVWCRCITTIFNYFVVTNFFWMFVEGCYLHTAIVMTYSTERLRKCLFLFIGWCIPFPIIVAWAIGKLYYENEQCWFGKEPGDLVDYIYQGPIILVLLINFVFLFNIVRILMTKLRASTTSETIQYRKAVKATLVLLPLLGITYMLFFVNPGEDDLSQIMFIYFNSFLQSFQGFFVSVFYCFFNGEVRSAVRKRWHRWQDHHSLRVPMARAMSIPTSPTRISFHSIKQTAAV
# Sequence (P24387 whole entry): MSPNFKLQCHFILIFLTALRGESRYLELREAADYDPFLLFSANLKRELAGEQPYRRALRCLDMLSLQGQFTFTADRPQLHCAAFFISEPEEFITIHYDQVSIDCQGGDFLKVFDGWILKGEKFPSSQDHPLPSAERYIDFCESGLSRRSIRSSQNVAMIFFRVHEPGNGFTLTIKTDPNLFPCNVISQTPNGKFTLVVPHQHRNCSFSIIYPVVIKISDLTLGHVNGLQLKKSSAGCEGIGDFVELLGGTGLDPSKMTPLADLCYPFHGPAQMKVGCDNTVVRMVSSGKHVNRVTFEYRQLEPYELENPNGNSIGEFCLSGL
# protocolDetails: activators of CRF receptor 2 with binding protein – uHTS hits, confirmation (AID 602473)
# Format: functional
# recordedConditions: read-out: EC50_Mean
Active and inactive are the calls of the source.
Outcome field: choose from y = active, n = inactive

## Task Outcome logged for CC(Sc1nnnn1-c1ccccc1)C(=O)Nc1ccccc1-c1ccccc1 (stereo not given) in this assay:
## Result n

## Task Outcome logged for COc1ccccc1-n1cnnc1SCC(=O)NCc1cccs1 in this assay:
## Result n

## Task Outcome logged for N#Cc1ccc(CC(=O)c2ccccc2)[nH]c1=O in this assay:
## Result y

---

# target: Microphthalmia-associated transcription factor (Homo sapiens)
# Sequence (O75030 whole entry): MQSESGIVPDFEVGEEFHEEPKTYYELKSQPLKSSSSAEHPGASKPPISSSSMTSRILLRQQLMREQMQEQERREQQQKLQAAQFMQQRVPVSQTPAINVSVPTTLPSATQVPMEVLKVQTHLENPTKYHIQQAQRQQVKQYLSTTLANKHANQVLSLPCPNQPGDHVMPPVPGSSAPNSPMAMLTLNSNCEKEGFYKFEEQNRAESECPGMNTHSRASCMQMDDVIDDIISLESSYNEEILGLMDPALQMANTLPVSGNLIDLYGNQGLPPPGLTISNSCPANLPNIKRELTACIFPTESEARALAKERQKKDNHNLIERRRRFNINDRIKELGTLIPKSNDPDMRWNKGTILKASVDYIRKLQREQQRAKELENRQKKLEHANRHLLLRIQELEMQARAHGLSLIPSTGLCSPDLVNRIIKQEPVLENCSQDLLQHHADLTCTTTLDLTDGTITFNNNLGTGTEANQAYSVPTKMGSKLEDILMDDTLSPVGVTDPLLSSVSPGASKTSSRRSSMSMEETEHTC
# protocolDetails: TRPM1 promoter luciferase signal decrease, dose response, MITF inhibitor project, cell-based, SK-MEL-5, cherry-picked, set 3 (AID 493073);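 also: SK-MEL-5 melanoma cells with luciferase driven by the MITF target TRPM1 promoter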
# Type: functional
The source made the active and inactive calls.
measuredAttribute: AC50

structuresmilesstring=Cc1cc(-n2c(SCC(=O)NCCC3=CCCCC3)nc3nnc(C)c-3c2N)ccc1Cl target="Microphthalmia-associated transcription factor (Homo sapiens)" result="17.1 µM (active)"
structuresmilesstring=COCCCn1nc2c3c(ccc2c1O)C(=O)c1ccccc1C3=O target="Microphthalmia-associated transcription factor (Homo sapiens)" result="8.86 µM (active)"

Shift focus to the following entry.
The recorded AC50 for entry Cn1cc(C(=O)CCl)c2ccccc21 equals 8.48 µM (active)

---

# target: Cytochrome P450 3A4 (Homo sapiens);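 also: confirmatory qHTS run detecting inhibitors and substrates of CYP3A4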
# Sequence (P08684 whole entry): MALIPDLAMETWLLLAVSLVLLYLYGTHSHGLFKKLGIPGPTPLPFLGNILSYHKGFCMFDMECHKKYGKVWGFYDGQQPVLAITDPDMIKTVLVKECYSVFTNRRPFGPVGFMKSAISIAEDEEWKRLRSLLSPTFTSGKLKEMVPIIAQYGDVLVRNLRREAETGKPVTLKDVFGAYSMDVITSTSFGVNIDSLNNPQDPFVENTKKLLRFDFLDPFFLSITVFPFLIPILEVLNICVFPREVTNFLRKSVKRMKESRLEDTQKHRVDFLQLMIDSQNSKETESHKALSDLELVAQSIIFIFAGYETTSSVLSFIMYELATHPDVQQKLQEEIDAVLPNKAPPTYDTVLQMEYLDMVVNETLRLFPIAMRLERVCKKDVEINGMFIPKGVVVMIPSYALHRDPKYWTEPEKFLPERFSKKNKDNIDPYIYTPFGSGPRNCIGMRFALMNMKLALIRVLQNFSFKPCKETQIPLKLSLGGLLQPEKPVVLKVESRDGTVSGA
# recordedConditions: Potency
Some compounds, each annotated with its measured AC50.

Reference set, count: 5
compound="COC(=O)c1cccc(C23CC4(C2)[C@H](CN(C)[C@@H]4c2ccccc2)C3c2ccc(Cl)nc2)c1 (stereo partly specified)" measuredattribute=AC50 result="5.01 µM (inconclusive)"
compound="CC1(C)CC[C@]2(C(=O)O)CC[C@]3(C)C(=CCC4[C@@]5(C)CC[C@H](O)C(C)(C)C5[C@H](O)C[C@]43C)C2C1 (stereo partly specified)" measuredattribute=AC50 result="25.1 µM (inconclusive)"
compound="COCCNc1nc(C)nc2c1nc(-c1ccccc1)n2CCCN1CCCCC1C (stereo unspecified)" measuredattribute=AC50 result="3.98 µM (inconclusive)"
compound=O=c1cc(-c2ccccc2O)oc2c(O)c(O)ccc12 measuredattribute=AC50 result="31.6 µM (inconclusive)"
compound=COC(=O)c1cc(OC)c(=O)c2c(OC)c(OC)ccc2c1 measuredattribute=AC50 result="39.8 µM (inconclusive)"

The recorded AC50 for entry CC1(C)CCC2(C(=O)O)CC[C@]3(C)C(=CCC4[C@]5(C)CCC(O)C(C)(C)C5C(O)C[C@]43C)C2C1 (stereo partly specified) equals 2.51 µM (inconclusive)

---

Some molecules, each annotated with its measured IC50.
# target: Calpain-2 catalytic subunit (Sus scrofa, UniProt P43367)
# Sequence (P43367 whole entry): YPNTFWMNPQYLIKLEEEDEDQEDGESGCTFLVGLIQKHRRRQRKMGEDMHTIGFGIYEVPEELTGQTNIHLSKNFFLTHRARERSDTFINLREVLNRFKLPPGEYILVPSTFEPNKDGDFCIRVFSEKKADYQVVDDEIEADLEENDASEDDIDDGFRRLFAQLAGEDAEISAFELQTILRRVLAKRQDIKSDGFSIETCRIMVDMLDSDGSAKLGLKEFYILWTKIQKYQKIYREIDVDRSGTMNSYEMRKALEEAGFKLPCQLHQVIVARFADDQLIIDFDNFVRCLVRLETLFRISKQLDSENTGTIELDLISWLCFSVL
# protocolDetails: pig calpain II inhibitor potency, dose response, biochemical, fluorogenic peptide substrate (AID 1420)
# Format: functional

structuresmilesstring=CC(C)OC(=O)c1cn(-c2ccccc2)nc1-c1ccc2c(c1)OCCO2 target="Calpain-2 catalytic subunit (Sus scrofa, UniProt P43367)" measuredattribute=IC50 result="39.3 µM (not active)"
structuresmilesstring=OCCCNc1nc(-c2ccc(Cl)cc2)nnc1-c1ccc(Br)cc1 target="Calpain-2 catalytic subunit (Sus scrofa, UniProt P43367)" measuredattribute=IC50 result="3.09 µM (not active)"

Shift focus to the following entry.
The recorded IC50 for entry COc1ccc(NC(=S)N2CCN(CCN3C(=O)c4cccc5cccc(c45)C3=O)CC2)cc1 equals 24.2 µM (not active)

---

# target: Large T antigen (Simian virus 40);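 also: Confirmatory-stage PubChem screen for compounds that inhibit SV40 T antigen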
# Sequence (P03070 whole entry): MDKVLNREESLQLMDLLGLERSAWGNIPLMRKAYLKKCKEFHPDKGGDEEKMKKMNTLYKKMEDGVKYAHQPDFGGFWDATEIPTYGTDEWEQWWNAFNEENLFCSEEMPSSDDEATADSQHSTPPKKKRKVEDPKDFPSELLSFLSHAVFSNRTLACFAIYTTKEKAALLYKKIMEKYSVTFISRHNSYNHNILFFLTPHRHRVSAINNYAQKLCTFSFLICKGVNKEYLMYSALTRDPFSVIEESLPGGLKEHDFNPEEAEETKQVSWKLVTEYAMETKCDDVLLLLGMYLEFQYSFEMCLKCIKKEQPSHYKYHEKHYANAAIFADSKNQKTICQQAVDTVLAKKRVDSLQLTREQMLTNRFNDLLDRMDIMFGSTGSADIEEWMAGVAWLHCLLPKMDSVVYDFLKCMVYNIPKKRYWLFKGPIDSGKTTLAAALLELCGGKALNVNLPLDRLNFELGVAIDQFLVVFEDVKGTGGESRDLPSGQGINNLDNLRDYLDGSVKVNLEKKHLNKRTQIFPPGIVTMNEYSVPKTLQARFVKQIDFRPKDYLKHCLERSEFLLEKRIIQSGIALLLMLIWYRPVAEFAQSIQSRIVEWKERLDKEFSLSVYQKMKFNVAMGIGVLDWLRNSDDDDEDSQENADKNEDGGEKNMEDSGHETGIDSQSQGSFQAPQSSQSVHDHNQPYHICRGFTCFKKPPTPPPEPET
# Format: functional, Betapolyomavirus macacae
Calls of active or inactive are those of the source.
Some molecules, each annotated with its measured IC50.

molecule=Cc1ccc2c[nH]nc2c1N target="Large T antigen (Simian virus 40)" result="15.4 µM (active)"
molecule=O=C(CS(=O)(=O)c1ccccc1)c1cc2cc(F)ccc2oc1=O target="Large T antigen (Simian virus 40)" result="62.8 µM (active)"
molecule=N/C(S)=N/c1c(Cl)cccc1Cl target="Large T antigen (Simian virus 40)" result="77.4 µM (active)"

Record for COc1ccc(NC2CCCN(C(=O)c3ccc(OC)o3)C2)cc1 (stereo not given) under target or system Large T antigen (Simian virus 40): IC50 reported as 16.7 µM (active)

Record for Cc1ccc(S(=O)(=O)N2CCOCC2)cc1NC(=O)CN1CCN(c2ccc(O)cc2)CC1 under target or system Large T antigen (Simian virus 40): IC50 reported as 5.03 µM (active)

---

Some molecules, each annotated with its measured AC50.
# target: Cytochrome P450 2D6 (Homo sapiens);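 also: CYP2D6 member of a cytochrome P450 panel assay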
# Sequence (P10635 whole entry): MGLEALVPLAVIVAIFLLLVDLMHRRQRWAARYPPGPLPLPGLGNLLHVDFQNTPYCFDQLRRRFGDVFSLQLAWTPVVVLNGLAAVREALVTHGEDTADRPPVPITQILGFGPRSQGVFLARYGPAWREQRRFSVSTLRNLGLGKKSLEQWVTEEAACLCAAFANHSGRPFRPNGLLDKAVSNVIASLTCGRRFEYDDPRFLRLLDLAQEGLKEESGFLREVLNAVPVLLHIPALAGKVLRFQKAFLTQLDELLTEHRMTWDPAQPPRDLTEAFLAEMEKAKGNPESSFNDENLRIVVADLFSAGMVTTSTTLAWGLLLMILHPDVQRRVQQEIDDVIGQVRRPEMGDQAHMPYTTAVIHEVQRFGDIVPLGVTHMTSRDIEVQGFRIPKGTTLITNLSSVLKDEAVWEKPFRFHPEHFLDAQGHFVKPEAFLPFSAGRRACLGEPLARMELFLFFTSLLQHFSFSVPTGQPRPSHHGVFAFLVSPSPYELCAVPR

Reference set, count: 2
structuresmilesstring=COc1cc(NC(=O)c2ccccc2Cl)ccc1NC(=O)c1ccco1 result="22.4 µM (inconclusive)"
structuresmilesstring=C[N+](C)(C)CCC(=O)c1cccc2ccccc12 result="10 µM (inconclusive)"

Record for CN(C)c1ncc2nc(-c3ccc(F)cc3)c(=O)n(-c3ccccc3)c2n1 under target or system Cytochrome P450 2D6 (Homo sapiens): AC50 reported as 1.58 µM (inconclusive)

---

# target: Corticotropin-releasing factor receptor 2/Corticotropin-releasing factor-binding protein (Homo sapiens, UniProt P24387+Q13324)
# protocolDetails: activators of CRF receptor 2 with binding protein – uHTS hits, confirmation (AID 602473)
# Format: functional
# recordedConditions: read-out: EC50_Mean
Calls of active or inactive are those of the source.
measuredAttribute: EC50

compound=COc1ccc(C=Cc2ccc3ccccc3n2)c(OC)c1 measuredattribute=EC50 result="> 53 µM (inactive)"
compound=Cc1ccc(-n2nnnc2SCC(=O)Nc2cccnc2Cl)cc1 measuredattribute=EC50 result="> 53 µM (inactive)"

Shift focus to the following entry.
The recorded EC50 for entry CCCC12CN(C(=O)c3ccc([N+](=O)[O-])cc3)CC(C)(CN(C(=O)c3ccc([N+](=O)[O-])cc3)C1)C2=O equals > 53 µM (inactive)
